assayed-system: human KDR (human, UniProt P35968 20-1356)
Sequence (P35968 20-1356): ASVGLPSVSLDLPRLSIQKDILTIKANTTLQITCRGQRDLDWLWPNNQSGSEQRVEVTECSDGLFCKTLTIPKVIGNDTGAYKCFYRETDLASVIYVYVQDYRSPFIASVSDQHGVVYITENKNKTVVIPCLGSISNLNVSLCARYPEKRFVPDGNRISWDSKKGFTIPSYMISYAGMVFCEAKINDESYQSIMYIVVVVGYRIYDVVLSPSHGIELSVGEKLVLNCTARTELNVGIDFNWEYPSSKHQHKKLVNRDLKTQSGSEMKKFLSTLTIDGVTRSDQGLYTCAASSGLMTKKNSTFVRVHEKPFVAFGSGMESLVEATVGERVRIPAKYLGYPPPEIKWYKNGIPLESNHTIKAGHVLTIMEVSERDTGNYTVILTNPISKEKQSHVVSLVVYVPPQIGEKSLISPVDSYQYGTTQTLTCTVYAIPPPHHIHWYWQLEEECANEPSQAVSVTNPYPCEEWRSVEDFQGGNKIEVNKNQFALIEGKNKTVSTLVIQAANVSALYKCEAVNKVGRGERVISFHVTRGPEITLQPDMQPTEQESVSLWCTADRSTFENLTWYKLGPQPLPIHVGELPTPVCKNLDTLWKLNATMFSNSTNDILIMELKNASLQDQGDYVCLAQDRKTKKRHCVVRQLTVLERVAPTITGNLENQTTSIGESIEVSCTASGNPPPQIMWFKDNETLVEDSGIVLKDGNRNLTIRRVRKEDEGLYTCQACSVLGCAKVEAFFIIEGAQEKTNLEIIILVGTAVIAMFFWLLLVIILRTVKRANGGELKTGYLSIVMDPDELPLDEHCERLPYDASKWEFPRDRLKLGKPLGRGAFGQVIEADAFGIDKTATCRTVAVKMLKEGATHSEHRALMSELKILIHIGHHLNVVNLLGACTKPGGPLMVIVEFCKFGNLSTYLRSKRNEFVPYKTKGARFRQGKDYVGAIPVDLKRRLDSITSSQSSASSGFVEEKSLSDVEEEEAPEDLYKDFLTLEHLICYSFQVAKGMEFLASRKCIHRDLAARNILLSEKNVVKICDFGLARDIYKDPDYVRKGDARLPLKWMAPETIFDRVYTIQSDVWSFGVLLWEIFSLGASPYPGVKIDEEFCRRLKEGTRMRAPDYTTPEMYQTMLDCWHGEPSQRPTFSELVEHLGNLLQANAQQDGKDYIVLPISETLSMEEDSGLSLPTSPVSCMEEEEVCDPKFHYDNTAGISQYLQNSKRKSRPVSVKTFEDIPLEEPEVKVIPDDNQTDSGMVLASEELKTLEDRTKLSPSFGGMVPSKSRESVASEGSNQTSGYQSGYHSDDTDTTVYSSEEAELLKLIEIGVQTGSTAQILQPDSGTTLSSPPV
assay-protocol: cell-based or functional assay
Listed next: entries and their corresponding 6-keto Prostaglandin F1α release, Maximum Inhibition (% Inhibition), Average.
quantity-measured: 6-keto Prostaglandin F1α release, Maximum Inhibition (% Inhibition), Average (%)

1) 21H6 (antibody, V domains shown, Fully human monoclonal antibody from a XenoMouse hybridoma, purified) VH: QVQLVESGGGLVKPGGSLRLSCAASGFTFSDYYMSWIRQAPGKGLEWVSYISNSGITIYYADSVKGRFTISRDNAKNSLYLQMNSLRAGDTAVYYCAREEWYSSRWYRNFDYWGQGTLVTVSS VL: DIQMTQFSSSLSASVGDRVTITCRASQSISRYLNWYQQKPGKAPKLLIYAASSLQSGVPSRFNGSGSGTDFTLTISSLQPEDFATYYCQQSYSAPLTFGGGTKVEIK: 77
2) 29H3 (antibody, V domains shown, Fully human monoclonal antibody from a XenoMouse hybridoma (IgG2 or IgG4 strain), purified) VH: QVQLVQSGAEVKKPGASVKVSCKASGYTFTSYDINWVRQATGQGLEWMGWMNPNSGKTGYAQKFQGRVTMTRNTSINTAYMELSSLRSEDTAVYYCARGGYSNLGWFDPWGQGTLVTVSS VL: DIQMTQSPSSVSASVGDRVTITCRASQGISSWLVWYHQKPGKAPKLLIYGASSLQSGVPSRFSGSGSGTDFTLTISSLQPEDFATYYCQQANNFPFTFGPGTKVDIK: 5
